# system under test: Parathyroid hormone/parathyroid hormone-related peptide receptor (Homo sapiens) (UniProt Q03431)
# Sequence (Q03431 whole entry, looked up): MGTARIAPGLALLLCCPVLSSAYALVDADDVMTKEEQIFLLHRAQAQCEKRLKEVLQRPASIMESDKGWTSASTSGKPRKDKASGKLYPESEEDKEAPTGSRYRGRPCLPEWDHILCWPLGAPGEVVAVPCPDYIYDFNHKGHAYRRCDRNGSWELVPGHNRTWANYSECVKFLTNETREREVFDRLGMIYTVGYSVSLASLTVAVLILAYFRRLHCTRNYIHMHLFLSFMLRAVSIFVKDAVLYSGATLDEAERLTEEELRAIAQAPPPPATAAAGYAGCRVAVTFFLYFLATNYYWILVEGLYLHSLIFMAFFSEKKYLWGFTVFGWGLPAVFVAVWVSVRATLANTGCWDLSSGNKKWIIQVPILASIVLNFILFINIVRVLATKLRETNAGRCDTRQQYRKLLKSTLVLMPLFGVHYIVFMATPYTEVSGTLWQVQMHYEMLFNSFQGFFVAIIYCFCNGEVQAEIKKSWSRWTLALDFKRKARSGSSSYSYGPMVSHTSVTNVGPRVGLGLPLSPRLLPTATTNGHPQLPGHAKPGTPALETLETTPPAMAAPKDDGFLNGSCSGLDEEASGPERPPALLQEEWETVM
# experiment summary: qHTS for PTHR1 Agonists: Primary Screen; also: nearly all actives have a fitted effect of over 55% in size
# experimental parameters: HEK293 GP2 PTHR1 cells, GloSensor cAMP luminescence, 1 h; series mostly up to 115 µM
Among all 410,000 compounds or so, about 310 (0.076%) were called active. Not shown: some 2% with an inconclusive outcome. Calls follow the shape of the dose curve; as a rule, active = well fitted activation curve with a large enough effect; inconclusive = small, poorly fitted or top-dose-only effect, or another doubt; inactive = no such curve, though single readings can be large or run the other way. The list comes from a sample in which actives are over-represented; it also holds close analogues and randomly drawn compounds.
Labels: y for active, n for inactive

compound: NS(=O)(=O)c1ccc(CCNC(=O)CCCn2c(SCC(=O)N3CCCC3)nc3ccsc3c2=O)cc1
discrete label: y
--
compound: Cc1nc(SCC(=O)Nc2ccc(C(=O)O)cc2)n[nH]1
discrete label: n
--
compound: CCCCC(=O)OC1=CN(Cc2ccccc2)S(=O)(=O)c2ccccc21
discrete label: n
--
compound: CCCN1CCN(CCCNC(=O)Cn2nc(CC)n3c(cc4occc43)c2=O)CC1
discrete label: n
--
compound: Cc1oc2ccc(O)c(CN3CCOCC3)c2c1C(=O)Nc1cccc(Cl)c1C
discrete label: n
--
compound: Cc1cc(C)c(NC(=O)CCc2c(C)nc3c(c(C)nn3C(C)(C)C)c2C)c(C)c1
discrete label: n
--
compound: Cc1c(C(=O)NCc2ccccc2Br)oc2ccc3c(c12)C(=O)CC(C)(C)O3
discrete label: n
--
compound: COc1ccc(C2(Nc3cccc(F)c3)C(=O)c3ccccc3C2=O)cc1
discrete label: n
--
compound: COc1ccccc1C(=O)Nc1c(C(=O)N(C)Cc2ccccc2)sc2nc(C)c(Cl)c(C)c12
discrete label: n
--
compound: CCOc1ccccc1CNC(=O)Nc1cn(CC(C)C)c(=O)c2ccccc12
discrete label: n
--
compound: Fc1ccc(-n2ncc3c(Nc4ccc(Oc5ccccc5)cc4)ncnc32)cc1
discrete label: n
--
compound: Cc1ccc(Cn2c(C)c3cnn(CC(=O)NCc4ccccc4)c(=O)c3c2C)cc1
discrete label: n
--
compound: CCC1=Nc2cc(C(=O)NCCCOC(C)C)ccc2Sc2ccc(C)cc21
discrete label: n
--
compound: Cc1ccc(C)n1-c1nnc(N2CCC(C(=O)NCc3ccccc3Cl)CC2)s1
discrete label: n
--
compound: COc1cccc(-c2n[nH]c3c2C(c2cccc(O)c2)N(C)C3=O)c1 (stereo unspecified)
discrete label: n
--
compound: NS(=O)(=O)c1ccc(CCNC(=O)CCCCCn2c(=O)[nH]c3ccccc3c2=O)cc1
discrete label: n
--
compound: CCN(C(=O)Cn1cnc2sc(C)c(S(=O)(=O)N3CCN(c4ncccn4)CC3)c2c1=O)c1ccccc1F
discrete label: n
--
compound: Cn1c(=O)c(C(=O)O)nn(-c2ccccc2)c1=O
discrete label: n
--
compound: CCOc1ccc(CNC(=O)C2CCCN(S(=O)(=O)N(CC)c3ccc(OCC)cc3)C2)cc1 (stereo unspecified)
discrete label: n
--
compound: Cc1cc(C)cc(NC(=O)CCCc2nc(-c3ccccc3Cl)no2)c1
discrete label: n
--
compound: CCN(CC)c1ccc(NC(=O)Cn2nc3c(cc2=O)CCCC3)c(C)c1
discrete label: n

* * *

# system under test: Parathyroid hormone/parathyroid hormone-related peptide receptor (Homo sapiens) (UniProt Q03431)
# experiment summary: qHTS for PTHR1 Agonists: Primary Screen; also: nearly all actives have a fitted effect of over 55% in size
# experimental parameters: HEK293 GP2 PTHR1 cells, GloSensor cAMP luminescence, 1 h; series mostly up to 115 µM
# Excerpt: The goal of the proposed studies is to discover new compounds that act as potent agonists on the parathyroid hormone receptor type-1 (PTHR1). […] To that end, we performed a quantitative high-throughput screening (qHTS) of the Molecular Libraries Probe Centers Network (MLPCN) compound libraries at the NIH Chemical Genomics Center (NCGC) for the parathyroid hormone receptor type-1 (PTHR1) using a unique HEK-293-derived cell line (GP2) that expresses the PTHR1 and a glosensor cAMP reporter construct. […]
Out of some 410,000 compounds screened, about 310 (0.076%) were called active. Roughly 2% stayed inconclusive and do not appear here. Shown is part of a subset that was picked to be rich in actives.

compound: COc1ccc(CCNC(=O)c2nn(C)c3c2CSc2ccccc2-3)cc1OC
outcome: inactive
//
compound: Cc1cc(C)c(NC(=O)CSc2nc3nccnc3c(=O)n2CCc2c[nH]c3ccccc23)c(C)c1
outcome: inactive
//
compound: Cc1ccc(C)c(NC(=O)CSC2=Nc3ccccc3N=C(c3ccc(F)cc3)C2)c1
outcome: inactive
//
compound: Cc1ccc(NC(=O)CN2C(=O)CC(C)Sc3ccccc32)c(C)c1 (stereo not given)
outcome: inactive
//
compound: COc1ccccc1C(=O)NCCn1cc(SCc2ccccc2Cl)c2ccccc21
outcome: inactive
